system: Rattus norvegicus; experiment: Dose normalized AUC (0 to t) in po dosed rat by cassette dosing; format: ADME, organism-based; conditions: in vivo
Threshold check on AUC: strictly below 600 ng·h/mL/mg/kg is yes (1); on or above 600 ng·h/mL/mg/kg is no (0).

CC(C)(C(=O)O)c1ccc(-c2c[nH]c3ncc(-c4ccc5ccccc5c4)cc23)cc1 | no (0)

Please state whether AUC is below 600 ng·h/mL/mg/kg for O=C(O)c1ccc(-c2c[nH]c3ncc(-c4ccccc4)cc23)cc1C1CCCC1 yes (1)

Find out if reported AUC for CC(C)(C(=O)O)c1ccc(-c2c[nH]c3ncc(-c4cccc(C#N)c4)cc23)cc1 is less than 600 ng·h/mL/mg/kg no (0)

Criterion: AUC strictly below 600 ng·h/mL/mg/kg. Is it met by CC(C)Cc1cc(-c2c[nH]c3ncc(-c4ccccc4)cc23)ccc1C(=O)O ? yes (1)

----------
experiment: Plasma clearance in rat by discrete study; assay type: ADME, organism-based
Assay Metric: clearance (mL/min/kg)
Express the result in mL/min/kg but write the number alone.

O=C(O)c1ccc(-c2c[nH]c3ncc(-c4ccccc4)cc23)cc1 | 64.4

Next up:
Look up and report measured clearance for this entry: O=C(O)Cc1ccc(-c2c[nH]c3ncc(-c4ccc5ccccc5c4)cc23)cc1 21.3

----------
This section presents compounds with their documented IC50 values.
Target: Serine/threonine-protein kinase Sgk1 (Homo sapiens)
Sequence (O00141 whole entry): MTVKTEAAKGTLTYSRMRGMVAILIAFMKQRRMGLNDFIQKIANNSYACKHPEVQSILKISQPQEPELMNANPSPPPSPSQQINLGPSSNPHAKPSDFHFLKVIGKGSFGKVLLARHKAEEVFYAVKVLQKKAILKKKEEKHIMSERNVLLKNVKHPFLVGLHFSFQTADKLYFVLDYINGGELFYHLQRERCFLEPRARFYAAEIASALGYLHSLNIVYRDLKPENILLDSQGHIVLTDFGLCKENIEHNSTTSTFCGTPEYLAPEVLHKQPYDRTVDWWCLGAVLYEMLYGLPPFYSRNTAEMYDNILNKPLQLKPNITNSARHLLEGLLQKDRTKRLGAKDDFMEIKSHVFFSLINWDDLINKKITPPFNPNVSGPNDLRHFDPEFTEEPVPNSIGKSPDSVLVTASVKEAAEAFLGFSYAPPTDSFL
Assay: Inhibition of SGK1 by fluorescence polarization assay
Write the value in nM as a bare number.

// solved cases for IC50 follow
CCc1cc(-c2c[nH]c3ncc(-c4ccccc4)cc23)ccc1C(=O)O | 20
COC(=O)c1ccc(-c2c[nH]c3ncc(-c4ccccc4)cc23)cc1 | 3160
c1ccc(-c2cnc3[nH]cc(-c4ccc(-c5nnn[nH]5)cc4)c3c2)cc1 | 160
CC(C)Cc1cc(-c2c[nH]c3ncc(-c4ccccc4)cc23)ccc1C(=O)O | 5

Pending compound:
Given the compound CC(C)(C(=O)O)c1ccc(-c2c[nH]c3ncc(-c4ccc5ccccc5c4)cc23)cc1 , write its reported IC50. 63

----------
test: Plasma clearance in rat by cassette dosing; assay type: ADME, organism-based
Assay Metric: clearance (mL/min/kg)
Please state the figure in mL/min/kg; there is no need to write the unit.

Answered examples (4):
O=C(O)c1ccc(-c2c[nH]c3ncc(-c4ccccc4)cc23)cc1C1CCCC1 | 25.7
CCc1cc(-c2c[nH]c3ncc(-c4ccccc4)cc23)ccc1C(=O)O | 9.4
CC(C)(C(=O)O)c1ccc(-c2c[nH]c3ncc(-c4ccc5ccccc5c4)cc23)cc1 | 4.32
CC(C)Cc1cc(-c2c[nH]c3ncc(-c4ccccc4)cc23)ccc1C(=O)O | 21.9

Next molecule, clearance to be filled in.
Answer with reported clearance of CC(C)(C(=O)O)c1ccc(-c2c[nH]c3ncc(-c4cccc(C#N)c4)cc23)cc1 6.56

----------
test: Dissociation constant, pKa of the compound; type: physicochemical
Quick list: pKa per entry.

c1ccc(-c2cnc3[nH]cc(-c4ccc(-c5nnn[nH]5)cc4)c3c2)cc1 | 4.9

Complete the entry with pKa for O=C(O)c1ccc(-c2c[nH]c3ncc(-c4ccccc4)cc23)cc1 4.2
